System: Candida albicans UP10
Assay type: cell-based
Conditions: UP10, 6 h
Where a SMILES comes first, the peptide text is derived from it.
assay endpoint: pEC50
The meaning of pEC50 here: minus log10 of the concentration in molar units.

INPUT: Given the compound C[C@H](NC(=O)CNC(=O)[C@H](CC(N)=O)NC(=O)[C@H](Cc1ccc(O)cc1)NC(=O)[C@H](CS)NC(=O)[C@H](CO)NC(=O)[C@H](C)NC(=O)[C@@H](N)Cc1ccc(O)cc1)C(=O)N[C@H](C(=O)N[C@@H](CO)C(=O)N[C@@H](Cc1ccc(O)cc1)C(=O)N[C@@H](CC(N)=O)C(=O)N[C@@H](CCC(N)=O)C(=O)N[C@@H](CCCCN)C(=O)N[C@@H](Cc1ccccc1)C(=O)N[C@@H](CCCCN)C(=O)O)[C@@H](C)O [I2A] (H-YASCYNGATSYNQKFK-OH; N-terminus and C-terminus assumed) , what is its reported pEC50?
OUTPUT: 5.20

---

Tested on: Candida albicans UP10
Format: cell-based
Details: C7/pc42 H2 alanine-substituted derivatives; 100 µg/mL, 37°C, 6 h, CFU assay, triplicate
Where a SMILES comes first, the peptide text is derived from it.
assay endpoint: Anti-Candida activity (%) at 100 µg/mL
// return numeric value only (unit: %, not printed)

INPUT: Given the molecule CC[C@H](C)[C@H](NC(=O)[C@@H](N)Cc1ccc(O)cc1)C(=O)N[C@@H](CO)C(=O)N[C@@H](CS)C(=O)N[C@@H](Cc1ccc(O)cc1)C(=O)N[C@@H](C)C(=O)NCC(=O)N[C@@H](C)C(=O)N[C@H](C(=O)N[C@@H](CO)C(=O)N[C@@H](Cc1ccc(O)cc1)C(=O)N[C@@H](CC(N)=O)C(=O)N[C@@H](CCC(N)=O)C(=O)N[C@@H](CCCCN)C(=O)N[C@@H](Cc1ccccc1)C(=O)N[C@@H](CCCCN)C(=O)O)[C@@H](C)O [N6A] (H-YISCYAGATSYNQKFK-OH; N-terminus and C-terminus assumed) , what is its reported Anti-Candida activity (%) at 100 µg/mL?
OUTPUT: 100.00

INPUT: Try CC[C@H](C)[C@H](NC(=O)[C@@H](N)Cc1ccc(O)cc1)C(=O)N[C@@H](CO)C(=O)N[C@@H](CS)C(=O)N[C@@H](Cc1ccc(O)cc1)C(=O)N[C@@H](CC(N)=O)C(=O)NCC(=O)N[C@@H](C)C(=O)N[C@H](C(=O)N[C@@H](CO)C(=O)N[C@@H](Cc1ccc(O)cc1)C(=O)N[C@@H](CC(N)=O)C(=O)N[C@@H](CCC(N)=O)C(=O)N[C@@H](CCCCN)C(=O)N[C@@H](Cc1ccccc1)C(=O)N[C@@H](C)C(=O)O)[C@@H](C)O [K16A] (H-YISCYNGATSYNQKFA-OH; N-terminus and C-terminus assumed) next.
OUTPUT: 0

INPUT: Try CC[C@H](C)[C@H](NC(=O)[C@@H](N)Cc1ccc(O)cc1)C(=O)N[C@@H](CO)C(=O)N[C@@H](CS)C(=O)N[C@@H](Cc1ccc(O)cc1)C(=O)N[C@@H](CC(N)=O)C(=O)NCC(=O)N[C@@H](C)C(=O)N[C@H](C(=O)N[C@@H](CO)C(=O)N[C@@H](Cc1ccc(O)cc1)C(=O)N[C@@H](C)C(=O)N[C@@H](CCC(N)=O)C(=O)N[C@@H](CCCCN)C(=O)N[C@@H](Cc1ccccc1)C(=O)N[C@@H](CCCCN)C(=O)O)[C@@H](C)O [N12A] (H-YISCYNGATSYAQKFK-OH; N-terminus and C-terminus assumed) next.
OUTPUT: 100.00

INPUT: Try CC[C@H](C)[C@H](NC(=O)[C@@H](N)Cc1ccc(O)cc1)C(=O)N[C@@H](C)C(=O)N[C@@H](CS)C(=O)N[C@@H](Cc1ccc(O)cc1)C(=O)N[C@@H](CC(N)=O)C(=O)NCC(=O)N[C@@H](C)C(=O)N[C@H](C(=O)N[C@@H](CO)C(=O)N[C@@H](Cc1ccc(O)cc1)C(=O)N[C@@H](CC(N)=O)C(=O)N[C@@H](CCC(N)=O)C(=O)N[C@@H](CCCCN)C(=O)N[C@@H](Cc1ccccc1)C(=O)N[C@@H](CCCCN)C(=O)O)[C@@H](C)O [S3A] (H-YIACYNGATSYNQKFK-OH; N-terminus and C-terminus assumed) next.
OUTPUT: 100.00

INPUT: Try CC[C@H](C)[C@H](NC(=O)[C@@H](N)Cc1ccc(O)cc1)C(=O)N[C@@H](CO)C(=O)N[C@@H](CS)C(=O)N[C@@H](Cc1ccc(O)cc1)C(=O)N[C@@H](CC(N)=O)C(=O)NCC(=O)N[C@@H](C)C(=O)N[C@H](C(=O)N[C@@H](C)C(=O)N[C@@H](Cc1ccc(O)cc1)C(=O)N[C@@H](CC(N)=O)C(=O)N[C@@H](CCC(N)=O)C(=O)N[C@@H](CCCCN)C(=O)N[C@@H](Cc1ccccc1)C(=O)N[C@@H](CCCCN)C(=O)O)[C@@H](C)O [S10A] (H-YISCYNGATAYNQKFK-OH; N-terminus and C-terminus assumed) next.
OUTPUT: 100.00

INPUT: Try CC[C@H](C)[C@H](NC(=O)[C@@H](N)Cc1ccc(O)cc1)C(=O)N[C@@H](CO)C(=O)N[C@@H](C)C(=O)N[C@@H](Cc1ccc(O)cc1)C(=O)N[C@@H](CC(N)=O)C(=O)NCC(=O)N[C@@H](C)C(=O)N[C@H](C(=O)N[C@@H](CO)C(=O)N[C@@H](Cc1ccc(O)cc1)C(=O)N[C@@H](CC(N)=O)C(=O)N[C@@H](CCC(N)=O)C(=O)N[C@@H](CCCCN)C(=O)N[C@@H](Cc1ccccc1)C(=O)N[C@@H](CCCCN)C(=O)O)[C@@H](C)O [C4A] (H-YISAYNGATSYNQKFK-OH; N-terminus and C-terminus assumed) next.
OUTPUT: 94.51
